Reported EC50 values are given for each entry in this list.
- Test system: differentiated human THP-1 cells
- Experiment notes: stimulated release of TNF-α from differentiated human THP-1 cells (ELISA, dose-response)
- Format: cell-based
- Assay context: Homo sapiens, THP-1, table of 133-139 (two lipid side chains), human THP-1 cells; read-out: EC50 (nM) (THP-1)
Property measured: EC50

Compound	Property measured	Measured
CCCCCCCCCCCCCCCCNC(=O)[C@@H]1CN(C(=O)c2ccc(C(=O)N3C[C@@H](C(=O)N[C@H]4C[C@@H]4c4ccccc4)[C@H](C(=O)N[C@H]4C[C@@H]4c4ccccc4)C3)cc2)C[C@H]1C(=O)NCCCCCCCCCCCCCCCC [Compound 133]	EC50	2.5 nM
CCCCCCCCNC(=O)[C@@H]1CN(C(=O)c2ccc(C(=O)N3C[C@@H](C(=O)N[C@H]4C[C@@H]4c4ccccc4)[C@H](C(=O)N[C@H]4C[C@@H]4c4ccccc4)C3)cc2)C[C@H]1C(=O)NCCCCCCCC [Compound 137]	EC50	0.17 nM
CCCCCCCCCCCCNC(=O)[C@@H]1CN(C(=O)c2ccc(C(=O)N3C[C@@H](C(=O)N[C@H]4C[C@@H]4c4ccccc4)[C@H](C(=O)N[C@H]4C[C@@H]4c4ccccc4)C3)cc2)C[C@H]1C(=O)NCCCCCCCCCCCC [Compound 135]	EC50	1 nM
CCCCCCNC(=O)[C@@H]1CN(C(=O)c2ccc(C(=O)N3C[C@@H](C(=O)N[C@H]4C[C@@H]4c4ccccc4)[C@H](C(=O)N[C@H]4C[C@@H]4c4ccccc4)C3)cc2)C[C@H]1C(=O)NCCCCCC [Compound 138]	EC50	0.18 nM
